# reported %Inh; entries follow
tested on: CDC2L1; construct: gene CDK11B; conditions: concentration: 1 μM, replicates: in singlicate; n = 1;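 note: KINOMEscan kinase panel screen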
readout-kind: %Inh (%)

INSERT INTO measurements (compound, target_system, readout_kind, units_label, recorded_result) VALUES
  ('COc1ccc(-c2coc3ccc(-c4nnc(SCc5ccc(OC)c(C(F)(F)F)c5)o4)cc23)cc1', 'CDC2L1', '%Inh', '%', 0),
  ('Cc1ccc(C(=O)Nc2ccc(Nc3ccnc4cc(-c5nccs5)ccc34)cc2O)cc1.Cl [GW494702]', 'CDC2L1', '%Inh', '%', 0),
  ('COc1cc(Nc2nccc(N3CCC(NC(=O)c4cc5ccccc5s4)C3)n2)cc(OC)c1OC (centres unmarked) [GSK1379760]', 'CDC2L1', '%Inh', '%', 0),
  ('CSc1cccc2c(-c3ccncn3)c(-c3ccc(F)cc3)nn12 [GW514786]', 'CDC2L1', '%Inh', '%', 0),
  ('CCS(=O)(=O)c1ccc(OC)c(Nc2nccc(-c3c(-c4cccc(NC(=O)c5c(F)cccc5F)c4)nn4ncccc34)n2)c1 [GSK326180]', 'CDC2L1', '%Inh', '%', 0),
  ('c1ccc(-c2cnc3nccnn23)cc1 [AH20685]', 'CDC2L1', '%Inh', '%', 0),
  ('C[C@@H]1CC[C@@H](C(=O)Nc2ccccc2)CN1c1cc(-c2ccc3c(N)n[nH]c3c2)nc(N)n1 [GSK2286062]', 'CDC2L1', '%Inh', '%', 7),
  ('COc1cc(Nc2nccc(N3CCC(NC(=O)Nc4cccc(C(C)=O)c4)C3)n2)cc(OC)c1OC (centres unmarked) [GSK1379753]', 'CDC2L1', '%Inh', '%', 0),
  ('Clc1ccc(-c2nn3ncccc3c2-c2ccnc(Nc3ccc4c(c3)OCCO4)n2)cc1 [GW829116]', 'CDC2L1', '%Inh', '%', 0),
  ('CC(=O)Nc1nc2cnc(Nc3cc(NC(=O)c4cccc(C5(C#N)CC5)c4Cl)ccc3C)nc2s1', 'CDC2L1', '%Inh', '%', 43),
  ('CN1CCN(Cc2cccc(-c3ccc4c(Nc5ccc(Oc6ccccc6)cc5)ccnc4c3)c2)CC1 [GW578342]', 'CDC2L1', '%Inh', '%', 0),
  ('Cn1cc(-c2ccc3c(c2)CCN3C(=O)Cc2cccc(F)c2)c2c(N)ncnc21 [GSK2603358]', 'CDC2L1', '%Inh', '%', 0),
  ('COc1cc(Nc2nccc(-c3c(-c4cccc(NC(=O)c5c(F)cccc5F)c4)nn4ccccc34)n2)cc(OC)c1OC [GSK323521]', 'CDC2L1', '%Inh', '%', 0),
  ('Oc1cc(Nc2ccnc3cc(I)ccc23)ccc1F [GW552771]', 'CDC2L1', '%Inh', '%', 0),
  ('COc1cccc(C(=O)Nc2cccc(Oc3ccc4nc(NC(=O)C5CC5)cn4n3)c2)c1', 'CDC2L1', '%Inh', '%', 0),
  ('CC(C)c1nc(-c2cccc(NS(=O)(=O)c3c(F)cccc3F)c2F)c(-c2ccnc(Nc3ccc(N4CCOCC4)nc3)n2)s1 [GSK2008607]', 'CDC2L1', '%Inh', '%', 12),
  ('COc1ccc(Nc2nccc(N3CCC(NC(=O)Nc4cccc(OC)c4)C3)n2)cc1 (centres unmarked) [GSK1379742]', 'CDC2L1', '%Inh', '%', 0),
  ('COc1cc(Nc2nccc(-c3c(-c4cccc(NC(=O)c5c(F)cccc5F)c4)nn4ncccc34)n2)cc(OC)c1OC [GSK327238]', 'CDC2L1', '%Inh', '%', 16),
  ('c1ccc(-c2n[nH]cc2Nc2ccnc3ccccc23)nc1 [GW694077]', 'CDC2L1', '%Inh', '%', 0),
  ('O=C(O)C(F)(F)F.O=C(O)C(F)(F)F.O=c1[nH]ccc2nc(N[C@@H]3CCCNC3)nc(Nc3ccc(S(=O)(=O)N4CCOCC4)cc3)c12 [GSK2177277]', 'CDC2L1', '%Inh', '%', 0),
  ('CCn1c(-c2nonc2N)nc2c(C#CC(C)(C)O)nc(OC[C@H](N)c3ccccc3)cc21 [GSK943949]', 'CDC2L1', '%Inh', '%', 0),
  ('CN1CCN(CCCNc2nccc(-c3c(-c4ccc(F)cc4)nn4cc(C(F)(F)F)ccc34)n2)CC1 [GW621581]', 'CDC2L1', '%Inh', '%', 0),
  ('Cc1cccc(NC(=O)Nc2ccc(Oc3ncnc4ccn(C)c34)cc2)c1', 'CDC2L1', '%Inh', '%', 0),
  ('O=C(Nc1n[nH]c2nc(-c3ccc(O)cc3)ccc12)C1CC1 [SB-710363]', 'CDC2L1', '%Inh', '%', 0),
  ('Cc1ccc(C)c(NC(=O)NC2CCN(c3ccnc(Nc4ccc(F)cc4)n3)C2)c1 (centres unmarked) [GSK1379720]', 'CDC2L1', '%Inh', '%', 0),
  ('Cl.c1ccc(-c2ccc3c(Nc4ccc5[nH]ncc5c4)ccnc3c2)nc1 [GW440137]', 'CDC2L1', '%Inh', '%', 0);

---

test system: NEK4; conditions: concentration: 1 μM, replicates: in singlicate; n = 1
# %Inh listing for each entry below
readout-kind: %Inh (%)

INSERT INTO measurements (line_notation, units_label, recorded_result) VALUES
  ('O=C(Nc1cccc(-c2nn3ncccc3c2-c2ccnc(Nc3ccccc3)n2)c1)c1c(F)cccc1F', '%', 4),
  ('CCc1ccc(-c2ccc3c(c2)-c2c(cnn2C)S(=O)(=O)N3C)cc1', '%', 0),
  ('FC(F)(F)c1ccc(/C=C/c2cncnc2Nc2ccc3[nH]c(Cc4ccccc4)nc3c2)cc1', '%', 0),
  ('Cc1cccc(Nc2nc(N[C@H]3CCNC3)ncc2C(N)=O)c1.Cl', '%', 27);

---

system: MAP3K4; conditions: concentration: 1 μM, replicates: in singlicate; n = 1
readout-kind: %Inh (%)

INSERT INTO results (line_notation, recorded_result) VALUES
  ('Nc1ncnc2c1nc(-c1ccccc1)n2-c1ccccc1', 35),
  ('CCn1c(-c2nonc2N)nc2c(C#CC(C)(C)O)ncc(OCCCCN)c21.O=C(O)C(F)(F)F.O=C(O)C(F)(F)F', 53),
  ('COc1cccc(-c2ccc3c(NC(=O)C4CC4)n[nH]c3n2)c1', 32),
  ('Cl.NC(=O)c1cccc(Nc2nccc(Nc3ccc(Oc4c(Cl)cccc4Cl)c(Cl)c3)n2)c1', 0);

---

tested on: CSNK2A2; details: concentration: 1 μM, replicates: in singlicate; n = 1
readout-kind: %Inh

INSERT INTO results (molecule, readout_kind, recorded_result) VALUES
  ('FC(F)(F)c1ccc(/C=C/c2cncnc2Nc2ccc3[nH]c(Cc4ccccc4)nc3c2)cc1', '%Inh', '0%'),
  ('CCCCc1nn2ncccc2c1-c1ccnc(Nc2ccc(N3CCN(C)CC3)cc2)n1', '%Inh', '7%'),
  ('NCCCC(NC(=O)c1cc(Br)c(-c2ccnc3[nH]ccc23)s1)c1ccccc1.O=C(O)C(F)(F)F.O=C(O)C(F)(F)F (centres unmarked)', '%Inh', '20%'),
  ('Fc1ccc(-c2ncn(C3CCNCC3)c2-c2ccnc(Oc3ccc(-c4ccccc4)cc3)n2)cc1', '%Inh', '7%'),
  ('CNC(=O)c1ccccc1Nc1nc(Nc2ccc(N3CCOCC3)cc2)ncc1Cl.Cl', '%Inh', '99.9%'),
  ('O=c1[nH]cc(-c2ccc(N3CCOCC3)cc2)c2sc(-c3cn[nH]c3)cc12', '%Inh', '79%'),
  ('CN(c1ccc(NC(=O)Nc2cc(C(F)(F)F)ccc2F)cc1)c1ccnc(Nc2ccc(S(N)(=O)=O)cc2)n1', '%Inh', '0%'),
  ('O=C(NC1CCN(c2ccnc(Nc3ccc(F)cc3)n2)C1)c1cc2ccccc2s1 (centres unmarked)', '%Inh', '12%'),
  ('CCc1ccc(-c2ccc3c(c2)-c2c(cnn2C)S(=O)(=O)N3C)cc1', '%Inh', '10%'),
  ('Cl.c1ccc(-c2ccc3c(Nc4ccc5[nH]ccc5c4)ccnc3c2)nc1', '%Inh', '0%'),
  ('Cn1cc(-c2[nH]c3cc(NC(=O)[C@H](N)C4CCCCC4)cc4c3c2C=NNC4=O)cn1', '%Inh', '77%'),
  ('CC(=O)Nc1nc2cnc(Nc3cc(NC(=O)c4cccc(C5(C#N)CC5)c4Cl)ccc3C)nc2s1', '%Inh', '0%'),
  ('C[C@@H]1CC[C@@H](C(=O)Nc2ccccc2)CN1c1cc(-c2ccc3c(N)n[nH]c3c2)nc(N)n1', '%Inh', '7%'),
  ('COc1cccc(NC(=O)NC2CCN(c3ccnc(Nc4cc(OC)c(OC)c(OC)c4)n3)C2)c1 (centres unmarked)', '%Inh', '7%'),
  ('Nc1n[nH]c2cnc(-c3ccccc3)cc12', '%Inh', '27%'),
  ('Cc1ccc(C)c(NC(=O)NC2CCN(c3ccnc(Nc4ccc(F)cc4)n3)C2)c1 (centres unmarked)', '%Inh', '0%'),
  ('Cc1ccc(S(=O)(=O)Nc2ccc(Nc3nccc(Nc4cccc5[nH]ncc45)n3)cc2)cc1', '%Inh', '0%');

Every entry's value here was drawn from paper PMC5540273.
